Experiment: KARI assay of purified S. exigua KARI and variants with NADH (Examples 6-9)
Format: biochemical
ENDPOINT NAME: kcat NADH (s⁻¹)
Numbers only, in s⁻¹.

# MOLECULE, kcat NADH, s⁻¹
measured = [
    ("Se1_KARI^GE11-his6: S. exigua KARI variant G60V (protein, UniProt D0WGK0 1-342, looked up, variant G60V, His6 tag, S. exigua KARI variant G60V) Ketol-acid reductoisomerase …: MSVKTKEKEMAVTILYEQDVDPKVIQGLKVGIIGYGSQGHAHALNLMDSGVDVRVGLREVSSSWKTAEEAGLKVTDMDTAAEEADVIMVLVPDEIQPKVYQEHIAAHLKAGNTLAFAHGFNIHYGYIVPPEDVNVIMCAPKGPGHIVRRQFTEGSGVPDLACVQQDATGNAWDIVLSYCWGVGGARSGIIKATFAEETEEDLFGEQAVLCGGLVELVKAGFETLTEAGYPPELAYFECYHEMKMIVDLMYESGIHFMNYSISNTAEYGEYYAGPKVINEQSREAMKEILKRIQDGSFAQEFVDDCNNGHKRLLEQREAINTHPIETTGAQIRSMFSWIKKED", 1),
]

With those in mind, consider the next molecule.
Q. May I ask what kcat NADH has been recorded for Se1_KARI^LE1-his6: S. exigua KARI variant I95V (protein, UniProt D0WGK0 1-342, looked up, variant I95V, His6 tag, S. exigua KARI variant I95V) Ketol-acid reductoisomerase …: MSVKTKEKEMAVTILYEQDVDPKVIQGLKVGIIGYGSQGHAHALNLMDSGVDVRVGLREGSSSWKTAEEAGLKVTDMDTAAEEADVIMVLVPDEVQPKVYQEHIAAHLKAGNTLAFAHGFNIHYGYIVPPEDVNVIMCAPKGPGHIVRRQFTEGSGVPDLACVQQDATGNAWDIVLSYCWGVGGARSGIIKATFAEETEEDLFGEQAVLCGGLVELVKAGFETLTEAGYPPELAYFECYHEMKMIVDLMYESGIHFMNYSISNTAEYGEYYAGPKVINEQSREAMKEILKRIQDGSFAQEFVDDCNNGHKRLLEQREAINTHPIETTGAQIRSMFSWIKKED ?
A. 0.74
